assay: amyloid nucleation score (Sup35N fusion, yeast selection) (log enrichment); library NNK1; higher = more nucleation; inactive = no reads after selection;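 note: zero at mode of non-aggregating sequences after 7 days selection at 30°C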
quantity_kind: amyloid nucleation score
Just the number, please, no unit attached.

Answered cases to consult:
monomer_sequence	amyloid nucleation score
GKEYYAIPMKNDGIARVNLR	0.875
FSWCGWQRRSSVVAGSRILW	-0.118
KSTSQSYVIFFAQCFKYTTV	-0.592
ELLEILFCSTIVERKNHRRP	2.11
EVADVGKMMIVVGDCRVFRW	5.59

query: Item AQAVLQLETRTIKIYRDGPK has what recorded amyloid nucleation score?
result: -1.08

query: Now try VNCGRMSAGCREVGWVDGES .
result: -0.316

query: Now try CVVWAEVRVR .
result: -0.419

query: Now try SYHRSSYYGLVNRMAFLVF .
result: 2.94

---

assay: amyloid nucleation score (Sup35N fusion, yeast selection) (log enrichment); library NNK1; higher = more nucleation; inactive = no reads after selection
quantity_kind: amyloid nucleation score
Just the number, please, no unit attached.

Answered cases to consult:
substance	amyloid nucleation score
GWHTQVMVVTSVSMLGVWT	0.487
AKCGICLFYGM	-0.358
RFFRISWIFMSDSRPTRSDF	0.793
AFIKNLTLCLDWTHSGAVYM	7.24
TLNDYYCFMLCGAVNG	0.071

query: Item FCVRWILPLDISMGDRHSSE has what recorded amyloid nucleation score?
result: 0.592

query: Now try DGLLSIEYMNVYSSS .
result: 0.326

query: Now try SKLIHYTSFLDYASSGEWKW .
result: 2.81

query: Now try CPITWNFLCGIVLIEYYRVV .
result: 7.04

query: Now try NVDWSPKRNINMGGWEKWLV .
result: 0.261

---

test: amyloid nucleation score (Sup35N fusion, yeast selection) (log enrichment); library NNK1; higher = more nucleation; inactive = no reads after selection
Note to self: values exactly at 0.2 are YES. So amyloid nucleation score at or above 0.2 is YES, below is NO.

substance	group_label
DSRVLSDYLSSYLSLKYLLV	NO
GYMCIVLIRG	YES

query: State whether the measured amyloid nucleation score reaches 0.2, counting equality as reaching it, for YASGLILIKSPFV
result: YES

query: Now try ADFVSFSSFYFWWHVVSLDT .
result: YES

query: Now try LNHIRRTVR .
result: YES

query: Now try WLNSEAWDYLATLGLSFNYS .
result: YES

query: Now try TLILVTLMASIRNDTRTSWS .
result: YES

query: Now try FVVSDIMGDLRKM .
result: YES

query: Now try ESRLLYSFRWVGERAVPSAN .
result: YES

query: Now try VGLCYRGKWDGFLDKKVRWK .
result: NO

---

test: amyloid nucleation score (Sup35N fusion, yeast selection) (log enrichment); library NNK2; higher = more nucleation; inactive = no reads after selection
quantity_kind: amyloid nucleation score
Just the number, please, no unit attached.

substance	amyloid nucleation score
IVDSVR	0.388
CIMCGALEIGFGIIRGWEDF	9.42
NARCMCWSGINLVTWYLLKE	7.14
QFVHRYGDHNAGVLPSYRKS	5.22
NFKWLILAGGVC	-0.808

query: Item HKGAARQPRPYMEAVIGPHP has what recorded amyloid nucleation score?
result: 0.792

query: Now try IPITSGIRRNCSSVRKDLGC .
result: 0.123

query: Now try QYVSLYAVKRIVEIVQDKCA .
result: 0.012

query: Now try SLLGLNFCSMLAIL .
result: 3.23

query: Now try SASVHYHYDMK .
result: 0.268

query: Now try MSGFKGVITSTFIANSLLPM .
result: -1.17

query: Now try MAILVGSFDVDSNCVDSWGV .
result: 0.027

query: Now try SRIGLYIKCVVLDWRELNLS .
result: 0.206

query: Now try VSCDNASSVLFFVRTTIWCT .
result: 0.751

query: Now try TSGRLR .
result: 1.67

query: Now try WVFKCVSNKERNYISCACSM .
result: 4.79

query: Now try DFMSSVFCQAVWVHAPRRVR .
result: 0.6

query: Now try GSESLNV .
result: 0.887

query: Now try GQELSGNIFIPDHLGLLSCS .
result: 0.744
